Taken from PubChem BioAssay (NCI).

Tested on: SF-295 CNS
method: NCI tumour cell line growth inhibition, 48 h
property: TGI

Study these solved cases before continuing.
# compound, result
data = [
    ("COc1nc(NC2OCC(OC(C)=O)C(OC(C)=O)C2OC(C)=O)c(N=C(C)C(C)=O)c(=O)n1C (configuration not stated)", "> 100 µM"),
    ("COC(=O)c1ccc2[nH]c3c(c2c1)CC(=O)Nc1ccccc1-3", "> 100 µM"),
]

Task: Provide one value: measured TGI of Nc1n[nH]c(=O)c2c1c(Br)cn2C1OC(CO)C(O)C1O (configuration not stated)
Output: > 90.2 µM

Task: Provide one value: measured TGI of CC(=O)NC1C(=O)CC(c2ccccc2)N(C)C1c1ccccc1 (configuration not stated)
Output: > 100 µM

Task: Provide one value: measured TGI of O=C1NC(N2CCCC(CO)C2)=N/C1=C\c1ccc(O)cc1 (configuration not stated)
Output: > 100 µM

Task: Provide one value: measured TGI of CC(=O)/C=C\C(=O)NNS(=O)(=O)c1ccc(C)cc1
Output: > 100 µM

Task: Provide one value: measured TGI of Cc1ccc(S(=O)(=O)c2ccccn2)cc1
Output: > 100 µM

Task: Provide one value: measured TGI of COCC(O)CN1C(N)=NC(O)C1O (configuration not stated)
Output: > 100 µM

Task: Provide one value: measured TGI of Nc1nc(N)c2nn(-c3ccc(C(=O)O)cc3)nc2n1
Output: > 100 µM

Task: Provide one value: measured TGI of C[C@H]1C(=O)C2=C[C@H]1CCC(=O)[C@]1(C)CCCC(C)(C)[C@H]1C[C@H]2O
Output: > 100 µM

Task: Provide one value: measured TGI of Cc1cccc2ns[s+]c12
Output: > 100 µM

Task: Provide one value: measured TGI of C#Cc1cccc(NC(=O)Nc2cccc(NC(=O)CCl)c2)c1
Output: > 82.5 µM
